- target or system: androgen receptor (AR) (Homo sapiens (Human))
- Sequence (P10275 other isoform, or with tags, fused parts or gaps): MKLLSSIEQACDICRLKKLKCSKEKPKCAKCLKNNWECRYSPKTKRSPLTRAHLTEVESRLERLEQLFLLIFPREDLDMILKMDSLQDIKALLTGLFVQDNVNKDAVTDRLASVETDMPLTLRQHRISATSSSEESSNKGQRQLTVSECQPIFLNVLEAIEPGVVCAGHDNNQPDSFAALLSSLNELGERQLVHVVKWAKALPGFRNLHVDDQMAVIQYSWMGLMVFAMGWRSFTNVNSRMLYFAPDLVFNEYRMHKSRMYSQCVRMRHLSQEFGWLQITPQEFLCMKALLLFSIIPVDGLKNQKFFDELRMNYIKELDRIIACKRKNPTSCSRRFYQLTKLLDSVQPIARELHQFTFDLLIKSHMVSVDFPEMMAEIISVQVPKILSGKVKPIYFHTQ
- assay method text: Androgen receptor (AR) reporter assay, antagonist screen activated by R1881
- Type: cell-based
- cond: AR-UAS-bla GripTite 293 cells, antagonist mode, R1881 at EC80
Could you please report measured IC50 for the items listed next?

Recorded results for 2 compounds are shown here.
> print(dat)
                            chemical.string                          target.or.system  assay.value
1  CCCc1nn(C)c2c(=O)[nH]c(-c3cc(N4C(=S)N(c5cnc(C#N)c(C(F)(F)F)c5)C(=O)C45CCC5)ccc3OCC)nc12  androgen receptor (AR) (Homo sapiens (Human))     ≤ 500 nM
2  CCCc1nc(C)c2c(=O)[nH]c(-c3cc(N4C(=S)N(c5ccc(C#N)c(C(F)(F)F)c5F)C(=O)C45CCC5)ccc3OCC)nn12  androgen receptor (AR) (Homo sapiens (Human))     ≤ 500 nM

*Q* Tell me the measured IC50 of CCCc1nc(C)c2c(=O)[nH]c(-c3cc(S(=O)(=O)NC4CN(c5ccc(C#N)c(C(F)(F)F)c5)C4)ccc3OCC)nn12 , please.
*A* 500 to 1000 nM

====

- target or system: androgen receptor (AR) (Homo sapiens (Human))
- assay method text: Androgen receptor (AR) reporter assay, antagonist screen activated by R1881
- cond: AR-UAS-bla GripTite 293 cells, antagonist mode, R1881 at EC80
Could you please report measured IC50 for the items listed next?

Recorded results for 5 molecules are shown here.
> print(dat)
                                   molecule     assay.value
1  CCCc1nc(C)c2c(=O)[nH]c(-c3cc(N4C(=S)N(c5ccc(C#N)c(C(F)(F)F)c5)C(=O)C45CCC5)ccc3OCC)nn12        ≤ 500 nM
2  CCCc1nc(C)c2c(=O)[nH]c(-c3cc(N4C(=S)N(c5cnc(C#N)c(C(F)(F)F)c5)C(=O)C4(C)C)ccc3OCC)nn12        ≤ 500 nM
3  CCCc1nc(C)c2c(=O)[nH]c(-c3cc(N4C(=S)N(c5ccc(C#N)c(C(F)(F)F)c5)C(=O)C45CCCC5)ccc3OCC)nn12        ≤ 500 nM
4  CCCc1nn(C)c2c(=O)[nH]c(-c3cc(N4C(=S)N(c5cnc(C#N)c(C(F)(F)F)c5)C(=O)C4(C)C)ccc3OCC)nc12  500 to 1000 nM
5  CCCc1nc(C)c2c(=O)[nH]c(-c3cc(N4C(=S)N(c5ccc(C#N)c(C(F)(F)F)c5)C(=O)C4C)ccc3OCC)nn12 (stereo not drawn)        > 100 nM

Read the next record carefully.
*Q* Lab note: need IC50 with androgen receptor (AR) (Homo sapiens (Human)) for entry CCCc1nc(C)c2c(=O)[nH]c(-c3cc(S(=O)(=O)NC4CCN(c5ccc(C#N)c(C(F)(F)F)c5)CC4)ccc3OCC)nn12 , please look it up.
*A* ≤ 500 nM

====

- target or system: androgen receptor (AR) (Homo sapiens (Human))
- assay method text: Androgen receptor (AR) reporter assay, antagonist screen activated by R1881
- cond: AR-UAS-bla GripTite 293 cells, antagonist mode, R1881 at EC80
measured metric: IC50

> print(dat)
                                   molecule     assay.value
1  CCCc1nc(C)c2c(=O)[nH]c(-c3cc(N4CC(=O)N(c5ccc(C#N)c(C(F)(F)F)c5)C4=S)ccc3OCC)nn12        > 100 nM
2  CCCc1nc(C)c2c(=O)[nH]c(-c3cc(S(=O)(=O)NC4CCN(c5ccc(C#N)c(C(F)(F)F)c5)C4=O)ccc3OCC)nn12 (stereo not shown)        > 100 nM
3  CCCc1nc(C)c2c(=O)[nH]c(-c3cc(S(=O)(=O)NC4CCN(c5ccc(C#N)c(C(F)(F)F)c5)C4)ccc3OCC)nn12 (stereo not shown)  500 to 1000 nM

Read the next record carefully.
*Q* Tell me the measured IC50 of CCCc1nc(C)c2c(=O)[nH]c(-c3cc(NC(=O)Nc4ccc(C#N)c(C(F)(F)F)c4)ccc3OCC)nn12 , please.
*A* > 100 nM
